Numbers sourced from patent US20130302399A1.

pEC50 reference
# tested.on: T1, cynomolgus monkey PCSK9 (cynomolgus monkey, UniProt A0A7N9D9N8 150-747)
# T1 chain: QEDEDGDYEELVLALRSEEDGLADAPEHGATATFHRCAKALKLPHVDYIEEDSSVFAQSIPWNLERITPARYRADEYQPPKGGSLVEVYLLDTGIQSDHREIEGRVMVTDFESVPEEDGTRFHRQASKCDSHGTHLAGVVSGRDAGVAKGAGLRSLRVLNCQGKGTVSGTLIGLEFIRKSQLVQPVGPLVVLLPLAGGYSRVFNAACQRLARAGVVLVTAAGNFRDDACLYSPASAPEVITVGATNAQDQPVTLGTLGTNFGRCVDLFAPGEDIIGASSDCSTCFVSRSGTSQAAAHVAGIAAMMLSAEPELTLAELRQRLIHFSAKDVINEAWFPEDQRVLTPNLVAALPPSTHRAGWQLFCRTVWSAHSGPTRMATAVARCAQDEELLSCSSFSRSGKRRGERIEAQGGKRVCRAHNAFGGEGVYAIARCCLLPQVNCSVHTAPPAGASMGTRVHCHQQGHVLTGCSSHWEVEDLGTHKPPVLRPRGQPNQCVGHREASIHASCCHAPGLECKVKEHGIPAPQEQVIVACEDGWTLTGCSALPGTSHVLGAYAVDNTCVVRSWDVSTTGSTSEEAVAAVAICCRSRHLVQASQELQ
# assay.remarks: ELISA
Just so you know, pEC50 here is -log10 of the concentration in molar units; reply with that number alone.

Ab6 (antibody, V domains shown) VH: QEQLEESGGDLVKPEGSLTLTCTASGFSFSSNYWICWVRQAPGKGLEWIGCIRDGGGTYYASWAKGRLTISMTSSTTVTLQLNSLTAADTATYFCASDINDGWLGQFNLWGPGTLVTVSS VL: DIVMTQTPASVEVAVGGTVTIKCQASQSISAYLAWYQQKPGQPPKLLIYRAYTLASGVPSRFKGSGSGTQFTLTISDLECADAATYYCQSYYSVTTNTYGNTFGGGTEVVVKR | 9.95
Ab8 (antibody, V domains shown) VH: QEQLVESGGGLVQPEGSLTLTCTASGFSFTSDYYMCWVRQAPGKGLEWIGCISTGDGSTYYASWAKGRFTISKPSSTTVTLQMTRLTAADTATYFCARDRYYSYAYGAYVYASDLWGPGTLVTVSS VL: DIVMTQTPASVSEPVGGTVTINCQASESIRNYLSWYQQKPGQRPKLLIYGASTLASGVPSRFKGSGSGTDFTLTISDLECADAATYYCQSNYGISSRSYVNGFGGGTEVVVKR | 9.97

Param item = Ab7 (antibody, V domains shown) VH: EVQLVESGGGLVQPGGSLRLSCAASGFTVSSNYWICWVRQAPGKGLEWIGCIRDGGGTYYASSAKGRFTISRDNSKNTLYLQMNSLRAEDTAVYYCASDINDGWLGQFNLWGQGTLVTVSS VL: DIVMTQSPSSLSASVGDRVTIKCQASQSISAYLAWYQQKPGKVPKLLIYRAYTLASGVPSRFSGSGSGTDFTLTISSLQPEDVATYYCQSYYSVTTNTYGNTFGGGTKVEIKR ; retrieve measured pEC50.
9.99
